I'd be grateful if you could share measured self-splicing fitness (ln) for these entries.
# Protocol Description: self-splicing fitness, log relative to wild type (ln ratio); higher = more splicing; Tetrahymena group I intron in knt gene, E. coli kanamycin selection, DiMSum; sequences stand for … in CUCUCU…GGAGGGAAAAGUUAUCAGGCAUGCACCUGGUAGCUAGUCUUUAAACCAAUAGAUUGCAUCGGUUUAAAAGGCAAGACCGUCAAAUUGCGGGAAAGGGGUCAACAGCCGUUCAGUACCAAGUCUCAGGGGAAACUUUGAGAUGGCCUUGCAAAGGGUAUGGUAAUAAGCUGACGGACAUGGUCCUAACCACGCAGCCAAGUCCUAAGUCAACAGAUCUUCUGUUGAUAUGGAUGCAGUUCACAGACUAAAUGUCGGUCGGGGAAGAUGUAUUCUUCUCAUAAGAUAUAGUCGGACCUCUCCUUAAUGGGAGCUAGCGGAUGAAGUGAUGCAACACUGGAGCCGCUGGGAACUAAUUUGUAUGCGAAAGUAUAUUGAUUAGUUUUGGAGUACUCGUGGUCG;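 also: selection with 25 µg/mL kanamycin versus none on LB agar overnight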
# Experimental Conditions: 37 °C
Numbers only.

Check out these entries, answers already filled in.
Report measured self-splicing fitness (ln); entry is `UAAGAGCAAUAUUACGCGUA` 0.00439

Report measured self-splicing fitness (ln); entry is `CAUAAGCAAUAUUACGAUAU` -2.86

Report measured self-splicing fitness (ln); entry is `GUGGAGCAAUAUUACGUCGU` -1.48

Consider the following items and state reported self-splicing fitness (ln) for each.
1. GUGCAGCAAUAUUACGGGAA
2. AGGAAGCAAUAUUACGGCAA
3. GCUAAGCAAUAUUACGCGGA
4. AAACAGCAAUAUUACGCGCU
5. ACGAAGCAAUAUUACGCAAA
6. AUGCAGCAAUAUUACGACGA
7. CCUCAGCAAUAUUACGAACU

1: -1.9; 2: -0.574; 3: -1.1; 4: -0.289; 5: -0.916; 6: -0.65; 7: -1.64

Consider the following items and state reported self-splicing fitness (ln) for each.
1. GACCAGCAAUAUUACGUGUA
2. GUAAAGCAAUAUUACGCAUA
3. UCUAAGCAAUAUUACGCCUA

1. 0.255
2. -0.728
3. -1.36
